B1: library; a variant is named by its letters at N, in order (parent)
chain: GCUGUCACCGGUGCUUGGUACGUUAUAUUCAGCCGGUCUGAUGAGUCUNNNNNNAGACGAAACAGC

- Variants of: B1
- Procedure Details: FACS-Seq fitted mean relative fluorescence mCherry/BFP without ligand (log10 relative fluorescence); HEK293T overexpressing SLC46A1; higher = higher reporter protein expression
- Run Parameters: without (6R,S)-folinic acid; ligand present: no
Measure Name: FACS-Seq fitted mean (log10)
When you answer, write just the number.

Worked examples follow.
[
  {
    "Mutant Designation": "GCGAAA",
    "FACS-Seq fitted mean (log10)": 0.397
  },
  {
    "Mutant Designation": "UUAUGU",
    "FACS-Seq fitted mean (log10)": 0.389
  },
  {
    "Mutant Designation": "GUGGUU",
    "FACS-Seq fitted mean (log10)": 0.311
  },
  {
    "Mutant Designation": "AUUGAG",
    "FACS-Seq fitted mean (log10)": 0.494
  },
  {
    "Mutant Designation": "CAGGAC",
    "FACS-Seq fitted mean (log10)": 0.301
  },
  {
    "Mutant Designation": "GAUUAA",
    "FACS-Seq fitted mean (log10)": 0.266
  }
]

Data request: Request the reported FACS-Seq fitted mean (log10) associated with UCAUGC
Data returned: 0.558

Data request: Okay, and CAAGCA ?
Data returned: 0.195

Data request: What would you report for UGAGUG ?
Data returned: 0.376

Data request: Subsequent entry: UAUCAG
Data returned: 0.285

Data request: Input GUCCGA
Data returned: 0.497

Data request: What do you get for AAGUUG ?
Data returned: 0.479

Data request: And what about the variant GUGAAA ?
Data returned: -0.0108

Data request: Next record, please: AAACAG
Data returned: 0.346

Value source: the supplement of paper PMC6757056
